Target or system: HLA-A*03:01 (Homo sapiens)
Experimental details: MHC binding assay, UV-ligand exchange with β2m ELISA, HLA-A*03:01
Measurement setup: peptide exchange yield

| Substance | Peptide exchange |
| --- | --- |
| 214 (ATGAATPKK; listed as Homo sapiens) [compound 214] | “+++” (>50 = +++) |
| 217 (TTVPHVFSK; listed as Homo sapiens) [compound 217] | “++” (>20% = ++) |
| 34 (SVYSETSNMDK; listed as Homo sapiens) [compound 34] | “+++” (>50 = +++) |
| 28 (VILESIFLK; listed as Homo sapiens) [compound 28] | “++” (>20% = ++) |
| 221 (LLNRHILAH; listed as Homo sapiens) [compound 221] | “+++” (>50 = +++) |
| 43 (KLMETSMGF; listed as Homo sapiens) [compound 43] | “++” (>20% = ++) |
| 49 (GLLEEALFY; listed as Homo sapiens) [compound 49] | “++” (>20% = ++) |
| 209 (KTLPAMLGTGK; listed as Homo sapiens) [compound 209] | “++” (>20% = ++) |
| 41 (SVAHLLSKY; listed as Homo sapiens) [compound 41] | “++” (>20% = ++) |
| 211 (ATYNKQPMYR; listed as Homo sapiens) [compound 211] | “+++” (>50 = +++) |
| 47 (SVLDLSVHK; listed as Homo sapiens) [compound 47] | “++” (>20% = ++) |
| 46 (RVFPSPMRI; listed as Homo sapiens) [compound 46] | “++” (>20% = ++) |
| 52 (KAFNQSSTLTK; listed as Homo sapiens) [compound 52] | “+++” (>50 = +++) |
| 45 (VVFPFPVNK; listed as Homo sapiens) [compound 45] | “+++” (>50 = +++) |
| 29 (RIYDEILQSK; listed as Homo sapiens) [compound 29] | “++” (>20% = ++) |
| 208 (KLNPQQAPLY; listed as Homo sapiens) [compound 208] | “++” (>20% = ++) |
| 33 (SVFEGDSIVLK; listed as Homo sapiens) [compound 33] | “++” (>20% = ++) |
| 48 (RIKPPGPTAVPK; listed as Homo sapiens) [compound 48] | “+++” (>50 = +++) |
| 216 (RIKAPSRNTIQK; listed as Homo sapiens) [compound 216] | “++” (>20% = ++) |
| 36 (KAKAAAKPK; listed as Homo sapiens) [compound 36] | “++” (>20% = ++) |
| 30 (RTYGFVLTF; listed as Homo sapiens) [compound 30] | “++” (>20% = ++) |
| 220 (SISNLVFTY; listed as Homo sapiens) [compound 220] | “++” (>20% = ++) |
| 37 (KAKKPAGAAK; listed as Homo sapiens) [compound 37] | “+++” (>50 = +++) |
| 38 (KARKSAGAAK; listed as Homo sapiens) [compound 38] | “+++” (>50 = +++) |
| 219 (HSYSSPSTK; listed as Homo sapiens) [compound 219] | “+++” (>50 = +++) |
| 218 (RVLTGVFTK; listed as Homo sapiens) [compound 218] | “++” (>20% = ++) |

###

Target or system: HLA-B*44:02 (Homo sapiens, UniProt P01889, A223V/A65T/A93T/A95T/D201E/D98Y/E176V/E187L/E204Q/E69K/G107R/H137Y/K202T/L105A/L119I/N104T/N87E/Q56L/Q94N/R106L/R155S/R180D/S101N/S121R/S35A/S48T/T118I/V36M/W191S/Y140D/Y91S)
Experimental details: MHC binding assay, UV-ligand exchange with β2m ELISA, HLA-B*44:02
Measurement setup: binding to HLA-B*44:02, UV-ligand exchange
Measure: Peptide exchange (MHC class I binding score, peptide exchange yield)

| Substance | Readout value |
| --- | --- |
| 180 (EEPAFNVSY; listed as Homo sapiens) [compound 180] | “++” (>20% = ++) |
| 138 (SQAPAARAF; listed as Homo sapiens) [compound 138] | “++” (>20% = ++) |
| 160 (EEETILHFF; listed as Homo sapiens) [compound 160] | “++” (>20% = ++) |
